Value source: ChEMBL document CHEMBL5260838

# assay-target: Sodium channel protein type 9 subunit alpha (Homo sapiens, UniProt Q15858)
# Sequence (Q15858 whole entry): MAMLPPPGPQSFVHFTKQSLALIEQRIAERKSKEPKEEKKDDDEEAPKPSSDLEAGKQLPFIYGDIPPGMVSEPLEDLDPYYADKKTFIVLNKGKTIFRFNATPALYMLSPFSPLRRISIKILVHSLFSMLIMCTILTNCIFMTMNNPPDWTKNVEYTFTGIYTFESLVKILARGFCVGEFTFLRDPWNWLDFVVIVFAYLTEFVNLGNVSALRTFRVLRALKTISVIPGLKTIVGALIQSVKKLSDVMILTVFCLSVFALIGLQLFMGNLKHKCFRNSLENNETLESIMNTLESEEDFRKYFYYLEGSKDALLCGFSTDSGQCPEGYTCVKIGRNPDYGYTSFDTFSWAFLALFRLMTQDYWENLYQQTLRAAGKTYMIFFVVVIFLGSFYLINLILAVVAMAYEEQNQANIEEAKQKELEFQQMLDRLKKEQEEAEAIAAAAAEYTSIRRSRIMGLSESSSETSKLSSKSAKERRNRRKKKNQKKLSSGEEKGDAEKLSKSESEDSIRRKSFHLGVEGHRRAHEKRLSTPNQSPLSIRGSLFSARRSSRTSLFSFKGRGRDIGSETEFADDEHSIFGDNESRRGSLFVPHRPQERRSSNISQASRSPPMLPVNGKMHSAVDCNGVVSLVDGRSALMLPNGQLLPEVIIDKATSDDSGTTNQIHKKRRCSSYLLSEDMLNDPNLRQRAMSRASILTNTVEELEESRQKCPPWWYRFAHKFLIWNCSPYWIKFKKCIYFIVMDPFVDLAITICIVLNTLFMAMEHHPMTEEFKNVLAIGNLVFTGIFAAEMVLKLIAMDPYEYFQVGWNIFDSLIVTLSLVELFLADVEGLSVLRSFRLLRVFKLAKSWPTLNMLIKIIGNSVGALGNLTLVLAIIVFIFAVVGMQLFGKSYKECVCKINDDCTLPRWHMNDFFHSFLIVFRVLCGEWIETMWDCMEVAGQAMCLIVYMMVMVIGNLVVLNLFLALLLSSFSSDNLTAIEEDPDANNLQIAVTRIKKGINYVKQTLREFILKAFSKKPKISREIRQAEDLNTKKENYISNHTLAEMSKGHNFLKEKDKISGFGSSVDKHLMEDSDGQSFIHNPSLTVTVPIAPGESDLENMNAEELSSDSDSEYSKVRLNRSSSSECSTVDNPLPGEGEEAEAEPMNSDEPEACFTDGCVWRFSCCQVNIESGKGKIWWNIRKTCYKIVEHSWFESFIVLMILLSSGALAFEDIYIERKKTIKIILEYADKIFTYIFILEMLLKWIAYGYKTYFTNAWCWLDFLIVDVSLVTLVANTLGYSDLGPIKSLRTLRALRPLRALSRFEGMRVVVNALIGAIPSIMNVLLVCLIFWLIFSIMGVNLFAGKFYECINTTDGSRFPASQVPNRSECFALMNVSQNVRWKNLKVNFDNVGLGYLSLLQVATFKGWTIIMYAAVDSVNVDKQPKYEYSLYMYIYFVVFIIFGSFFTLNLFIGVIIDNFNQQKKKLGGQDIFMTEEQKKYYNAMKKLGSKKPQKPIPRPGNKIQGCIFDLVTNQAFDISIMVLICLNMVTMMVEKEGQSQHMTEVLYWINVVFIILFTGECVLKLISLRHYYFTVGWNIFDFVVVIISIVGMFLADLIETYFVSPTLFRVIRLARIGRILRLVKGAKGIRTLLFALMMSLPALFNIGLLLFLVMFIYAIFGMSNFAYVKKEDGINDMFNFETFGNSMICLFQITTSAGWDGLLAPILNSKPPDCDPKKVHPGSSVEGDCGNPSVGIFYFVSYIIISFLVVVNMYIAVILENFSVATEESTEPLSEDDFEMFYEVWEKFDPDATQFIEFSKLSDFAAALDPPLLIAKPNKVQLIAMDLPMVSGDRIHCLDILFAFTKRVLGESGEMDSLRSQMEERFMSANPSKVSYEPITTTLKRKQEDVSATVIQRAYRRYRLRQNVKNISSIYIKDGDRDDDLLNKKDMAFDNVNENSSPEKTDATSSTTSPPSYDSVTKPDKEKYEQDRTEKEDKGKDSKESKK
# test-name: Displacement of [3H]GX-545 from human Nav1.7 alpha subunit expressed in HEK293 cells co-expressing beta1 subunit by liquid scintillation counting analysis
# Assay type: cell-based
hey, just use yes (1) if measured IC50 is less than 30 nM, otherwise no (0)

1) CCc1cc(C(=O)NS(C)(=O)=O)c(F)cc1OCC12CC3CC(CC(C3)C1)C2 :: yes (1)
2) O=C(NS(=O)(=O)C1CC1)c1cc(C2CC2)c(OCC2CCC(F)(F)CC2)cc1F :: no (0)
3) CS(=O)(=O)NC(=O)c1cc(C2CC2)c(OCC2CCCCC2)cc1F :: yes (1)
4) CS(=O)(=O)NC(=O)c1cc(Cl)c(OCC2CCCC2)cc1F :: no (0)
5) CC1(COc2cc(F)c(C(=O)NS(=O)(=O)C3CC3)cc2C2CC2)CCC(C(F)(F)F)CC1 (stereo not given) :: yes (1)
